B1: HDV Ribozyme (parent)
chain: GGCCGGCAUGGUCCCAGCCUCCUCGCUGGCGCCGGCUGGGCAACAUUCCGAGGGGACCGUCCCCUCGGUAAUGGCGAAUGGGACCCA

Variants of: B1
Experiment: self-cleavage, relative activity (ratio to wild type); higher = more cleavage; co-transcriptional
Output t for self-cleavage not less than 0.2; output f otherwise.

Answered cases to consult:
>>> df
                             query_sequence  group
0  GGCCGGCAUGGUCCCAGCCUCCUCGCUGGCGUCGGCUGGGCAACAUUCCCAGGGGACCGUCCCCUCGGUAAUGGCGAAUGGGACCCA [C32U G50C]      t
1  GGCCGGCAUGGUCCCAGCCUCCUCGCUGGCGCCGGCUGGGCAACAUUCCGAGGGCACCGUCCCGUCGGUAAUGGCGAAUGGGACCCA [G55C C64G]      t
2  GGCCGGCAUGGUCCCAGCCUCCUCGCUGGCGCCGGCUGGGCAACAGUCCGGGGGGACCGUCCCCUCGGUAAUGGCGAAUGGGACCCA [U46G A51G]      t
3  GGCCGGCAUGGUCCCAUCCUCCUCGCUGGCGCCGGCUGGGCAACAUUCCGAGGGGACCGUCCCCUCGGUAAUGGCGCAUGGGACCCA [G17U A77C]      f
4  GUCCGGCAUGGUCCCAGCCUCCUCGCUGGCGCCGGCUGGGCAACAUUCCGAGGGGACCGUCCCCUCGGUAAUGGCGAAUGAGACCCA [G2U G81A]      f
5  GGCCGGCAUGGUCCCAGCCUCCUCGCUGGCGCCGGGUGGGCAACAAUCCGAGGGGACCGUCCCCUCGGUAAUGGCGAAUGGGACCCA [C36G U46A]      t
6  GGCCGGCAUGGUCCCAGCCUCCUCGCUGGAGCCGGCUGGGCAACAUUCCGAAGGGACCGUCCCCUCGGUAAUGGCGAAUGGGACCCA [C30A G52A]      t
7  GGCCGGCAGGGUCCCAGCCUCCUCGCUGGCGCCGGCUGGGCAACAUUCCGAGGGGACCGUCCCCUCGGUAAUGGCGCAUGGGACCCA [U9G A77C]      f

Shift focus to the following entry.
Determine whether measured self-cleavage meets or exceeds 0.2 for GGCCGGCAUGGUCCCAGCCUCCUCGCUUGGGCCGGCUGGGCAACAUUCCGAGGGGACCGUCCCCUCGGUAAUGGCGAAUGGGACCCA [G28U C30G]
f

Cited source: the RNAGym collection of RNA variant scans (doi:10.7554/elife.80360)
